All figures here come from patent US11530206B2.

Target: ULK1 kinase (Homo sapiens, UniProt O75385)
Sequence (O75385 with tags, fused parts or gaps): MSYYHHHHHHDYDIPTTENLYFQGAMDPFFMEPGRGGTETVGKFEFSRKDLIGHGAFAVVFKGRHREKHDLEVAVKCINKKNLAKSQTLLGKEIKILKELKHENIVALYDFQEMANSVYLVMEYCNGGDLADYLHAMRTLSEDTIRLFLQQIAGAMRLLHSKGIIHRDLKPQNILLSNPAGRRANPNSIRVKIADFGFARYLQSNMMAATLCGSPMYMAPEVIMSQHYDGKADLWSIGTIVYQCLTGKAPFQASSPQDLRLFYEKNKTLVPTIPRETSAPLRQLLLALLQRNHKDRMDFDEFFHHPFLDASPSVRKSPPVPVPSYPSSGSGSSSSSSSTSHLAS
experimental_endpoint: IC50

CCc1cc(N2CCN(C)CC2)ccc1Nc1ncc(Br)c(NCCCN2CCOCCC2=O)n1 [Example 76]: 0.001 to 0.025 µM

Item under review: Cc1cc(N2CCN(C)CC2)ccc1Nc1ncc(C(F)(F)F)c(NCCCN2CCCC2=O)n1 [Example 2] . Reported IC50?
0.1 to 0.5 µM

How about this compound: Cc1cc(C2CCNCC2)ccc1Nc1ncc(C(F)(F)F)c(NCCCN2CCCCC2=O)n1 [Example 7]
0.025 to 0.1 µM

How about this compound: Cc1cc(C2CCN(C)CC2)ccc1Nc1ncc(Cl)c(NCCCN2CCCCC2=O)n1 [Example 6]
> 0.5 µM

How about this compound: Cc1cc(-c2cnn(C)c2)ccc1Nc1ncc(C(F)(F)F)c(NCCCN2CCCCC2=O)n1 [Example 108]
> 0.5 µM
